test: Inhibition of cupric ion-mediated amyloid beta (1 to 42) aggregation at 25 uM after 24 hrs by thioflavin T fluorescence assay relative to control
Would you mind telling me the reported inhibition of each entry?
Numbers only, in %.

Provide inhibition values for the following items, in order.
1. CC(C(=O)O)c1ccc(-c2ccc(O)c(C(=O)/C=C/c3ccc(N4CCOCC4)cc3)c2)c(F)c1 (stereo not given)
2. CC(C(=O)O)c1ccc(-c2ccc(O)c(C(=O)/C=C/c3ccncc3)c2)c(F)c1 (stereo not given)
3. COc1ccc(/C=C/C(=O)c2cc(-c3ccc(C(C)C(=O)O)cc3F)ccc2O)cc1OC (stereo not given)
4. CC(C(=O)O)c1ccc(-c2ccc(O)c(C(=O)/C=C/c3ccccc3O)c2)c(F)c1 (stereo not given)
5. CC(C(=O)O)c1ccc(-c2ccc(O)c(C(=O)/C=C/c3cccs3)c2)c(F)c1 (stereo not given)

1: 47.2; 2: 52.8; 3: 24.5; 4: 16.3; 5: 12.1

====

target: UniProt P05067; assay: Inhibition of self-induced aggregation of amyloid beta (1 to 42) (unknown origin) at 25 uM after 24 hrs by thioflavin T fluorescence method relative to control
Sequence (P05067 whole entry): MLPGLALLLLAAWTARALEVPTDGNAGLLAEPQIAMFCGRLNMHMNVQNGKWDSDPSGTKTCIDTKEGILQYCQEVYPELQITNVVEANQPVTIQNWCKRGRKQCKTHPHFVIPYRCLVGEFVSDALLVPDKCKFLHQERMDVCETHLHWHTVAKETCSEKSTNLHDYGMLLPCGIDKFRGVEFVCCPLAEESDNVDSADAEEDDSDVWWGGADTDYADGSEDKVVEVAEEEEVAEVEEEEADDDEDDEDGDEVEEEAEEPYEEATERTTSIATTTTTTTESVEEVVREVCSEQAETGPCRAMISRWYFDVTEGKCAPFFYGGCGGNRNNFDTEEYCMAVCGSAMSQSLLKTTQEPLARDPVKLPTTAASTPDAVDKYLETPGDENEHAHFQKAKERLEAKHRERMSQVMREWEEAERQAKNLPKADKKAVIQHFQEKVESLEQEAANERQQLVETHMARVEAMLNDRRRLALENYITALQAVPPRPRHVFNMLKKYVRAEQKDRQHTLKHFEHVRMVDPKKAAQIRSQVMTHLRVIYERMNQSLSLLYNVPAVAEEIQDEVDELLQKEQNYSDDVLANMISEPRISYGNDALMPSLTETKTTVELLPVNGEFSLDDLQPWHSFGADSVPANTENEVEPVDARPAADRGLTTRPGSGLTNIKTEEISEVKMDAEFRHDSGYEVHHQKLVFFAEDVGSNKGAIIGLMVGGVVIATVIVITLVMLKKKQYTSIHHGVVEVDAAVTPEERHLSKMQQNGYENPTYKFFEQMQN
Tick Fulfilled if inhibition is 20% or greater. Tick Not fulfilled if inhibition is less than 20%.

Some solved cases for reference:
COc1ccc(/C=C/C(=O)c2cc(-c3ccc(C(C)C(=O)O)cc3F)ccc2O)c(OC)c1 (stereo not given) :: Not fulfilled
CC(C(=O)O)c1ccc(-c2ccc(O)c(C(=O)/C=C/c3ccncc3)c2)c(F)c1 (stereo not given) :: Not fulfilled
CC(C(=O)O)c1ccc(-c2ccccc2)c(F)c1 (stereo not given) :: Not fulfilled
CCN(CC)c1ccc(/C=C/C(=O)c2cc(-c3ccc(C(C)C(=O)O)cc3F)ccc2O)cc1 (stereo not given) :: Fulfilled

Now consider the entry below.
Entry CC(C(=O)O)c1ccc(-c2ccc(O)c(C(=O)/C=C/c3cccnc3)c2)c(F)c1 (stereo not given) : is its inhibition no less than 20%?
Not fulfilled
